# run.description: P. aeruginosa biofilm formation inhibitors, primary screen, strain PAO1, LB-PBS medium, absorbance 600 nm (AID 1176); further: test concentration not given here
# run.parameters: P. aeruginosa PAO1 growth/biofilm, A600, 12 h; higher = more signal
Classification field. Basis: z-score. Definitions: LOW = under 0.2, MEDIUM = from 0.2 up to 1, HIGH = 1 and over

Q) For the record CCC(CC)C(O)C1C=CC2C(=O)N(C)C(=O)C2N1Nc1ccccc1 (centres undefined) , report the class its z-score corresponds to.
A) HIGH

Q) Class (by measured z-score) for CCCCC(O)C1C=CC2C(=O)N(c3ccccc3)C(=O)C2N1Nc1ccccc1F (centres undefined)
A) HIGH

Q) Kindly state the category for this compound: C=C(C)C1C(=C)CN([C@H](CO)c2ccccc2)C1=O (some centres undefined)
A) LOW

Q) Into which category would you place `Cc1ccc(S[C@]2(C(=O)NCCN3CCOCC3)CC(=O)N(Cc3ccccc3Cl)[C@@H]2c2ccc(CO)cc2)cc1` ?
A) MEDIUM

Q) Category lookup for the compound `COC(=O)[C@@]1(Cc2ccc(OC)cc2)[C@H]2c3cc(C(=O)N(C)C)n(Cc4cccc5ccccc45)c3C[C@H]2CN1C(=O)c1ccccc1`
A) HIGH

Q) Form field 'band' for `CN1C(=O)[C@]2(Cc3ccccc3)N=C(c3ccc(OCCCO)cc3)O[C@@H]2c2ccccc21`
A) MEDIUM

Q) GET /class?item= CCCCCN1CC=CC23O[C@@H]4/C=C\CCCOC(=O)C4[C@H]2C(=O)N(CCCO)[C@@H]3C1=O (some centres undefined)
A) MEDIUM

Q) Which of the defined bands does the recorded z-score of `CC(C)C(=C=CC[C@@H](O)c1ccccc1OCCO)CCO` sit within?
A) LOW

Q) Note: place this compound into its band. Item: O=C1NC(=O)C2C1C=CC(C(O)c1cccc3ccccc13)N2Nc1ccccn1 (centres undefined)
A) MEDIUM
